Here we list compounds with their recorded pIC50 when tested on UniProtKB P11802.
Sequence (P11802 whole entry): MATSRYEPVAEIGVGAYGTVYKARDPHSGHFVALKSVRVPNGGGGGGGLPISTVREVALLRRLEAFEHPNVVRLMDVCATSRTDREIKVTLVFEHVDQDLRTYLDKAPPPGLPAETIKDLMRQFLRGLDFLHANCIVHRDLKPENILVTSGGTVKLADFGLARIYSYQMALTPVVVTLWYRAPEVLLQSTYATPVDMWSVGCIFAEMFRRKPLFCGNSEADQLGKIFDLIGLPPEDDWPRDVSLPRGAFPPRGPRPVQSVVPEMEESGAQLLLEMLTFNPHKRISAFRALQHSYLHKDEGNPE
Expect pIC50 as a plain number equal to -log10 of the molar concentration.

1. COCCCNS(=O)(=O)c1ccc(Nc2nccc(-c3cnc4ccccn34)n2)cc1 | 5.51

// below: pIC50 requested for another compound
Q. Please give measured pIC50 of the following entry: CN(C)CCNS(=O)(=O)c1ccc(Nc2nccc(-c3cnc4ccccn34)n2)cc1
A. 6.59

====

Here we list compounds with their recorded IC50 when tested on UniProt:P06493.
Sequence (P06493 whole entry): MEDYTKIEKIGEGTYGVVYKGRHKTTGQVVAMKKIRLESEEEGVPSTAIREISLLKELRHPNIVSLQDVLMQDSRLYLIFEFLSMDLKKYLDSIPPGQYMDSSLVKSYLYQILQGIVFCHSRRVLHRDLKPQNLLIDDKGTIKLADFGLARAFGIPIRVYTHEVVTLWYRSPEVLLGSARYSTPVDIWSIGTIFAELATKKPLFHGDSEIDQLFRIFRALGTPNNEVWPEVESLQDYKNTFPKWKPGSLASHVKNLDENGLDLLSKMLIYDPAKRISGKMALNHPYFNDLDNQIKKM
Write the value in nM as a bare number.

1. COCCCNS(=O)(=O)c1ccc(Nc2nccc(-c3cnc4ccccn34)n2)cc1 | 6

Q. Please give measured IC50 of the following entry: CN(C)CCNS(=O)(=O)c1ccc(Nc2nccc(-c3cnc4ccccn34)n2)cc1
A. 15

====

Here we list compounds with their recorded IC50 when tested on Cyclin-dependent kinase 2 (Homo sapiens, UniProt P24941).
Write the value in nM as a bare number.

1. COCCNS(=O)(=O)c1ccc(Nc2nccc(-c3cnc4ccccn34)n2)cc1 | 12
2. CN(C)CCCN(C)S(=O)(=O)c1ccc(Nc2nccc(-c3cnc4ccccn34)n2)cc1 | 5
3. Cc1nc2ccccn2c1-c1ccnc(Nc2ccc(S(N)(=O)=O)cc2)n1 | 38

// below: IC50 requested for another compound
Q. Please give measured IC50 of the following entry: CN(C)CCNS(=O)(=O)c1ccc(Nc2nccc(-c3cnc4ccccn34)n2)cc1
A. 5
